Known Bioactivity relative to TL1A-0002 of a selection of binders
# measurementTarget: T1, recombinant human TL1A (human, UniProt O95150 71-251)
# T1 construct: homotrimer; biotinylated for SPR capture; the ELISA paragraphs say only 'recombinant TL1A'; also called TNFSF15
# T1 chain: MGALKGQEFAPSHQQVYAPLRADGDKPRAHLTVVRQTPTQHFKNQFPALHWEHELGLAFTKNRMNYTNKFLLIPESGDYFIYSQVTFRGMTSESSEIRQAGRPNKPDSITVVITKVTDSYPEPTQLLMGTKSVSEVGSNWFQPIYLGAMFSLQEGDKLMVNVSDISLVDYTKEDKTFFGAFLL
# experimentalDetails: competition ELISA vs bio-TL1A-0002
I only need the number, in fold, no unit after it.

Check out these entries, answers already filled in.
binder: TL1A-0045 (antibody, human IgG1, kappa, V domains shown, IgG1/kappa; VH graft on IGHV1-46*01) VH: QVQLVQSGAEVKKPGASVKVSCKASGYDFTYYGISWVRQAPGQGLEWMGWISTYNGNTHYARMLQGRVTMTRDTSTSTVYMELSSLRSEDTAVYYCARENYYGSGAYRGGMDVWGQGTTVTVSS VL: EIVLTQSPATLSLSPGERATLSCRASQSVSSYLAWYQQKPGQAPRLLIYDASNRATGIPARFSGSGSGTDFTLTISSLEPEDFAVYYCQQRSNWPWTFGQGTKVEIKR
experimentalResult: 1.2
//
binder: TL1A-0049 (antibody, human IgG1, kappa, V domains shown, IgG1/kappa; IGHV1-46*01 / IGKV1-39*01 grafts) VH: QVQLVQSGAEVKKPGASVKVSCKASGYDFTYYGISWVRQAPGQGLEWMGWISTYNGNTHYARMLQGRVTMTRDTSTSTVYMELSSLRSEDTAVYYCARENYYGSGAYRGGMDVWGQGTTVTVSS VL: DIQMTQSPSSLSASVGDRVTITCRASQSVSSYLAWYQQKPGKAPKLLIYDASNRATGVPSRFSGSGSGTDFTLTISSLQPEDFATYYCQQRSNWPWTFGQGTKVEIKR
experimentalResult: 1.1
//
binder: TL1A-0052 (antibody, human IgG1, kappa, V domains shown, IgG1/kappa; IGHV1-2*02 / IGKV1-39*01 grafts) VH: QVQLVQSGAEVKKPGASVKVSCKASGYDFTYYGISWVRQAPGQGLEWMGWISTYNGNTHYARMLQGRVTMTRDTSISTAYMELSRLRSDDTAVYYCARENYYGSGAYRGGMDVWGQGTTVTVSS VL: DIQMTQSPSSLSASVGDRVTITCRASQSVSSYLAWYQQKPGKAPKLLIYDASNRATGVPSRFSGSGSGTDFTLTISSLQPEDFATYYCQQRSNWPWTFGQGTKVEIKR
experimentalResult: 0.8

Query: Tell me measured Bioactivity relative to TL1A-0002 for TL1A-0047 (antibody, human IgG1, kappa, V domains shown, IgG1/kappa; VH graft on IGHV3-7*01) VH: EVQLVESGGGLVQPGGSLRLSCAASGYDFTYYGISWVRQAPGKGLEWVAWISTYNGNTHYARMLQGRFTISRDNAKNSLYLQMNSLRAEDTAVYYCARENYYGSGAYRGGMDVWGQGTTVTVSS VL: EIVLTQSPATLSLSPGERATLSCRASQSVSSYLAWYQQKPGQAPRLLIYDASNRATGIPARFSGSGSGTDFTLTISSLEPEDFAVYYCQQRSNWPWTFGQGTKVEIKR please.
Result: 1.2
